test system: Vero E6 infected with SARS-CoV-2; assay: inhibition of SARS-CoV-2 cytopathic effect; higher = more antiviral protection, active = above 15; conditions: 100 nM; 48 h
inhibition of SARS-CoV-2 cytopathic effect: recorded values
MEASURED ATTRIBUTE: inhibition of SARS-CoV-2 cytopathic effect (%)

INSERT INTO measurements (compound, observed_result) VALUES
  ('NC1=N[C@@]2(c3cc(NC(=O)c4ccc(F)cn4)ccc3F)COC[C@H]2CS1', -4.37),
  ('CC(C)(C)[C@]1(O)CCN2C[C@H]3c4ccccc4CCc4cccc(c43)[C@@H]2C1', 0.21),
  ('C[N+]1([O-])[C@@H]2CC[C@H]1C[C@@H](OC(=O)C(CO)c1ccccc1)C2 (stereo not given in full) [atropine-oxide]', -1.67),
  ('O[C@@H](COc1cccc2ncccc12)CN1CCN([C@@H]2c3ccccc3[C@@H]3[C@H](c4ccccc42)C3(F)F)CC1', 0.11),
  ('O=C1CCC(N2C(=O)c3ccccc3C2=O)C(=O)N1 (stereo not given) [thalidomide]', -2.47),
  ('N[C@@H](CSS(=O)(=O)O)C(=O)O', -0.09),
  ('C=C(CC)C(=O)c1ccc(OCC(=O)O)c(Cl)c1Cl', 2.32),
  ('CN(C(=O)CCCOc1ccc2[nH]c(=O)ccc2c1)C1CCCCC1 [cilostamide]', -0.1),
  ('CCOC(=O)CC(=O)N1CCSC1COc1ccccc1OC (stereo not given)', -3.76),
  ('COC(=O)CCc1ccc(OCC(O)CNC(C)C)cc1 (stereo not given)', -0.39),
  ('O=C1CCC[C@@H]2[C@H]3CCCN4CCC[C@@H](CN12)[C@@H]34', -1.73),
  ('CCOC(=O)Nc1ccc2c(c1)N(C(=O)CCN1CCOCC1)c1ccccc1S2', -0.23),
  ('O=C(O)c1cc(=O)[nH]c(=O)[nH]1', -1),
  ('CC(=O)Nc1nc2c(Oc3cc(-c4ccc(C(F)(F)F)cc4)ncn3)cccc2s1', 2.03),
  ('COCC1=C(C(=O)O)N2C(=O)[C@@H](NC(=O)/C(=N\OC)c3csc(N)n3)[C@H]2SC1', -1.76),
  ('CN1CCN(C(=O)O[C@H]2c3nccnc3C(=O)N2c2ccc(Cl)cn2)CC1', 2.86),
  ('COc1cc2c(cc1OC)[C@H](C)NCC2 [Isoquinoline,-6,7-dimethoxy-1-methyl-1,2,3,4-tetrahydro,]', -0.88),
  ('N=C(N)NC(=O)Cc1c(Cl)cccc1Cl', -3.11),
  ('COc1ccc2cccc(N3CCN(CCNC(=O)c4ccc(F)cc4)CC3)c2c1', 0.77),
  ('COc1cc2c(cc1O)C(CCc1ccc(Cl)cc1)N(C)CC2 (stereo not given)', 0.29),
  ('O=C(Nc1ccccc1)Nc1ccc(-c2ccc(C(=O)[C@@H]3CCC[C@@H]3C(=O)O)cc2)cc1', 3.77),
  ('CCC(=O)O[C@]1(C(=O)COC(C)=O)CC[C@H]2[C@@H]3C[C@H](C)C4=CC(=O)C=C[C@]4(C)[C@H]3[C@@H](O)C[C@@]21C [methylprednisolone-aceponate]', 0.19),
  ('CCO[C@@H]1OC(=O)C[C@@H]1NC(=O)[C@@H]1CCCN1C(=O)[C@@H](NC(=O)c1ccc(N)c(Cl)c1)C(C)(C)C', 0.58),
  ('C[N+]1(C)CCCC(OC(=O)C(O)(c2ccccc2)c2ccccc2)C1 (stereo not given) [mepenzolate]', -3.53),
  ('COc1ccccc1N1CCN(CC(O)COc2cc(OC)c(OC)c(OC)c2)CC1 (stereo not given)', 0.33),
  ('COc1ccc(OC)c(C(O)C(C)N)c1 (stereo not given)', 1.61),
  ('NCCCC[C@H](NC(=O)[C@@H]1CCCN1C(=O)[C@@H]1CSSC[C@H](NC(=O)CNC(=O)CNC(=O)CN)C(=O)N[C@@H](Cc2ccc(O)cc2)C(=O)N[C@@H](Cc2ccccc2)C(=O)N[C@@H](CCC(N)=O)C(=O)N[C@@H](CC(N)=O)C(=O)N1)C(=O)NCC(N)=O', 0.5),
  ('CCOC(=O)c1ccc(NC2CCCCC2)c(N)c1', 2.61),
  ('C[C@H](NC(=O)CNC(=O)c1cccc(Cl)c1)c1ccccc1', -4.2),
  ('CC1(C)CCC(C)(C)c2cc(NC(=O)c3ccc(C(=O)O)cc3)ccc21', 1.5),
  ('Fc1ccc(Cn2c(NC3CCNCC3)nc3ccccc32)cc1', -11.8),
  ('O=C(O)c1nc(=O)[nH]c(=O)[nH]1', 1.25),
  ('NC(=O)c1ncn([C@@H]2O[C@H](CO)[C@@H](O)[C@H]2O)c1O', 0.9),
  ('COc1cc2nc(N3CCN(C(=O)COc4c(OC)cccc4C(C)C)CC3)nc(N)c2cc1OC', 3.19),
  ('COc1cc(-n2c(=S)[nH]c3ccccc3c2=O)c(Cl)cc1Cl', -0.2);

###

Below, each entry is listed alongside its reported morphology score.
tested on: Vero E6 infected with SARS-CoV-2; test: morphology score (similarity to uninfected cells); higher = more like uninfected cells; conditions: 24 h
MEASURED ATTRIBUTE: morphology score

INSERT INTO assay_data (compound, measured_attribute, observed_result) VALUES
  ('CN(C(=O)CCCOc1ccc2[nH]c(=O)ccc2c1)C1CCCCC1 [cilostamide] (10 µM)', 'morphology score', -0.131),
  ('COCCCOc1ccnc(C[S+]([O-])c2nc3ccccc3[nH]2)c1C (centres undefined) [rabeprazole] (10 µM)', 'morphology score', 0.00912),
  ('CC1(C)CC[C@]2(C(=O)O)CC[C@]3(C)[C@H](C(=O)C=C4[C@@]5(C)C=C(C#N)C(=O)C(C)(C)[C@@H]5CC[C@]43C)[C@@H]2C1 [bardoxolone] (0.833333 µM)', 'morphology score', 0.164),
  ('CNc1cc2c(Nc3cccc(Br)c3)ncnc2cn1 (10 µM)', 'morphology score', -0.276);

###

system: Vero E6 infected with SARS-CoV-2; test: inhibition of SARS-CoV-2 cytopathic effect; higher = more antiviral protection, active = above 15; details: 10000 nM; 48 h
Possible outcomes: 1.0 for active, 0.0 for inactive

INSERT INTO results (compound, group) VALUES
  ('C[N+](C)(CCOc1ccccc1)Cc1ccccc1 [bephenium-hydroxynaphthoate]', 0.0),
  ('CCOC(=O)C1=C(C)NC(c2ccccc2)=C(C(=O)OCc2ccc([N+](=O)[O-])cc2)[C@@H]1C#Cc1ccccc1', 0.0),
  ('Cn1nccc1Nc1nccc(-c2ccn([C@H](CO)c3ccc(Cl)c(F)c3)c(=O)c2)n1', 0.0),
  ('NC(=O)c1cnc2[nH]ccc2c1N[C@@H]1[C@@H]2CC3C[C@H]1C[C@@](O)(C3)C2', 0.0),
  ('COc1ccc(S(=O)(=O)N2CCC[C@H]2C(=O)Nc2cc(C)cc(C)c2)cc1', 0.0),
  ('CN1C(=O)COc2c(C(=O)NC3CN4CCC3CC4)cc(Cl)cc21 (centres undefined) [azasetron]', 0.0),
  ('COc1cc(Nc2c(C#N)cnc3cc(OCCCN4CCN(C)CC4)c(OC)cc23)c(Cl)cc1Cl [bosutinib]', 0.0),
  ('COc1ccc(-c2nc3cc(C4=NNC(=O)CC4C)ccc3[nH]2)cc1 (centres undefined) [pimobendan]', 0.0),
  ('O=C(O)Cc1ccc(OCCNC[C@H](O)c2ccccc2)cc1', 0.0),
  ('Clc1ccc(C2(c3ccc(-c4cn[nH]c4)cc3)CCNCC2)cc1', 0.0),
  ('C[C@@]1(c2cc(-c3cncnc3)c(F)cc2F)CCSC(N)=N1', 0.0),
  ('NCc1ccc(S(N)(=O)=O)cc1 [mafenide]', 0.0),
  ('CC(=O)OCC(=O)[C@H]1CC[C@H]2[C@@H]3CC[C@H]4C[C@H](O)CC[C@]4(C)[C@H]3C(=O)C[C@]12C [alfadolone-acetate]', 0.0),
  ('CCCCc1nc2cc(/C=C/C(=O)NO)ccc2n1CCN(CC)CC', 0.0),
  ('CC(=O)Nc1ccc(CC(=O)O)cc1 [actarit]', 0.0),
  ('CN1C(=O)c2c(nn(Cc3ccc(-c4cccc(F)n4)cc3)c2Nc2ccccc2)N2C1=N[C@@H]1CCC[C@@H]12', 0.0),
  ('C[N+](C)(C)CC(=O)O [betaine]', 0.0),
  ('CC1CC(OC(=O)C(O)c2ccccc2)CC(C)(C)C1 (centres undefined) [cyclandelate]', 0.0),
  ('Nc1nc(NC[C@H]2CC[C@H](CNS(=O)(=O)c3cccc4ccccc34)CC2)nc2ccccc12', 1.0);

###

system: Vero E6 infected with SARS-CoV-2; assay: morphology score (similarity to uninfected cells); higher = more like uninfected cells; conditions: 24 h
# binarize morphology score: threshold -0.003 inclusive, high side label 1, low side label 0

INSERT INTO assay_data (compound, group) VALUES
  ('CCOc1ccc2nc(S(N)(=O)=O)sc2c1 [ethoxzolamide] (10 µM)', 'label 1'),
  ('COc1ccc(/C=C\c2cc(OC)c(OC)c(OC)c2)cc1OP(=O)(O)O [fosbretabulin] (0.833333 µM)', 'label 1'),
  ('NS(=O)(=O)c1cccc2c1c([N+](=O)[O-])cc1nc(O)c(O)nc12 (10 µM)', 'label 0'),
  ('Cc1ccc(N(CC2=NCCN2)c2cccc(O)c2)cc1 [phentolamine] (10 µM)', 'label 1'),
  ('Oc1ccc2c3c1O[C@H]1[C@@H](O)CC[C@@]4(O)[C@@H](C2)N(CC2CCC2)CC[C@]314 [nalbuphine] (10 µM)', 'label 0'),
  ('CCOC(=O)c1ccc(C#Cc2ccc3c(c2)C(C)(C)CCS3)nc1 [tazarotene] (10 µM)', 'label 0'),
  ('CCCCC(=O)N(Cc1ccc(-c2ccccc2-c2nnn[nH]2)cc1)[C@H](C(=O)O)C(C)C [valsartan] (10 µM)', 'label 1'),
  ('O=C(NC1CCN(CCc2c[nH]c3ccccc23)CC1)c1ccccc1 [indoramin] (10 µM)', 'label 1');
